Tested on: SIV NC (SIVmne)
procedureDetails: fluorescence anisotropy salt titration
testContext: FA: 20 mM HEPES pH 7.5, 30-750 mM NaCl, 1 mM MgCl2, 20 µM TCEP, 5 mM 2-mercaptoethanol, room temperature, 400 nM NC, 10 nM RNA (Gag: 20 nM RNA, plus 2 mM …)
measuredQuantity: pKd
pKd is a log-scale quantity: -log10 of the concentration expressed in molar.

// map GGUCUCUCUGGUUAGACCAGAUCUGAGCCUGGGAGCUCUCUGGCUAACUAGGGAACCCACUGCUUAAGCCUCAAUAAAGCUUGCCUUGAGUGCUCAAAGUAGUG [HIV-1 TARpolyA RNA] to recorded pKd (system: SIV NC (SIVmne)) 4.09

// map AGUCGCUCUGCGGAGAGGCUGGCAGAUUGAGCCCUGGGAGGUUCUCUCCAGCACUAGCAGGUAGAGCCUGGGUGUUCCCUGCUAGACUCUCACCAGCACUUGGCCGGUGCUGGGCAGAGUGACU [SIV TAR RNA] to recorded pKd (system: SIV NC (SIVmne)) 4.21

// map CCACGACGGAGUGCUCCUAUAAAGACGCGGGUCGGUACCAGACGGCGUGAGGAGCGGGAGAGGAAGAGGCCUCCGGUUGCAGGUAAGUGCAACACAAAAAAGAAAUAGCUGUCUUUUAUCCAGGAAGGGGUAAUAAGAUAGAGUGG [SIV Psi RNA (WT)] to recorded pKd (system: SIV NC (SIVmne)) 4.14
